Data credit: patent US20030059769

# ASSAY SYSTEM: P-selectin (PS-Rg) (Homo sapiens, UniProt P16109 P16109:42-321)
# Sequence (P16109 42-321, one chain of several): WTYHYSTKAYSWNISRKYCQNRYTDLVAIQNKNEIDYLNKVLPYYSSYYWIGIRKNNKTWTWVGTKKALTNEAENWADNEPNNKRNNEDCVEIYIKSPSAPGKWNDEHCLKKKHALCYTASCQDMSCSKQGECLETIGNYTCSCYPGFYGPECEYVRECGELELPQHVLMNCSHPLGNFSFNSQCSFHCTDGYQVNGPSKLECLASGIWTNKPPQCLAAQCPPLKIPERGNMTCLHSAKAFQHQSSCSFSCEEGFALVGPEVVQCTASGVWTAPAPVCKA
# ASSAY METHOD TEXT: filter; 37 C, HSMC
# MEASUREMENT CONTEXT: tags: human IgG1 Fc fusion; chain copies: dimer; label: 32P
Please provide measured pKd for the entries that follow.
One number for each entry, as −log10 of the molar value.

Here's what some known entries look like.
PF373 (ssRNA, 2'-F on all C and U) RNA: GGGAGACAAGAAUAAACGCUCAACGAAUCAGUAAACAUAACACCAUGAAACAUAAAUAGCACGCGAGACGUCUUCGACAGGAGGCUCACAACAGGC = 10.31
PF380 (ssRNA, 2'-F on all C and U) RNA: GGGAGACAAGAAUAAACGCUCAACGAGCAAAAGUACUCACGGGACCAGGAGAUCAGCAACACGCGAGACGAAAUUCGACAGGAGGCUCACAACAGGC = 10.13

Give one value of pKd per listed binder.
1. PF411 (ssRNA, 2'-F on all C and U) RNA: GGGAGACAAGAAUAAACGCUCAACAACCCAACCAUCUAGAGCUUCGAACCAUGGUAUACAAGGGAACACAAAAUUCGCGGAGGCUCCAACAGGCGGC
2. PF381 (ssRNA, 2'-F on all C and U) RNA: GGGAGACAAGAAUAAACGCUCAAAGGAUCACACAAACAUCGGUCAAUAAAUAAGUAUUGAUAGCGGGGAUAUUCGACAGGAGGCUCACAACAGGC
3. PF412 (ssRNA, 2'-F on all C and U) RNA: GGGAGACAAGAAUAAACGCUCAACGACCACAAUACAAACUCGUAUGGAACACGCGAGCGACAGUGACGCAUUUUCGACAGGAGGCUCACAACAGGC
4. PF396 (ssRNA, 2'-F on all C and U) RNA: GGGAGACAAGAAUAAACGCUCAAGCGGUCAGAAACAAUAGCUGGAUACAUACCGCGCAUCCGCUGGGCGAUAUUCGACAGGAGGCUCACAACAGGC
5. PF377 (ssRNA, 2'-F on all C and U) RNA: GGGAGACAAGAAUAAACGCUCAACGAGCCAGGAACAUCGACGUCAGCAAACGCGAGCGCAACCAGUAACACCUUCGACAGGAGGCUCACAACAGGC
6. PF378 (ssRNA, 2'-F on all C and U) RNA: GGGAGACAAGAAUAAACGCUCAACGAUGAGCGUGACCGAAGCUAUAAUCAGGUCGAUUCACCAAGCAAUCUUAUUCGACAGGAGGCUCACAACAGGC
7. PF395 (ssRNA, 2'-F on all C and U) RNA: GGGAGACAAGAAUAAACGCUCAACGAGCAAGGAACGAAUACAAACCAGGAAACUCAGCAACACGCGAGCAGUAAGAAUUCGACAGGAGGCUCACAACAGGC

10.89
10.78
9.35
10.62
10.73
10.29
10.59

What value of pKd has been recorded for this entry: PF422 (ssRNA, 2'-F on all C and U) RNA: GGGAGACAAGAAUAAACGCUCAACGUCAAGCCAGAAUCCGGAACACGCGAGAAAACAAAUCAACGACCAAUCGAUUCGACAGGAGGCUCACAAAGGC
9.76
